- target.system: T1, JCV VP1 VLP (JC virus (JCV), Mad-1 strain, UniProt P03089 1-354)
- T1 construct: also called JCV VP1 VLPs; JCV VP1 (coating with reassociation buffer)
- assay.summary: direct ELISA
Items are presented alongside their recorded EC50.
The response must be a number in nM with no trailing unit.

Consider the reported EC50 for these binders:
binder="NI-307.6A2 (antibody, V domains shown) VH: QVQLQESGPGLVKPSETLSLTCAVSGGSVSSSYWYSWVRQLPGKGLEWIGEIFHTGDTNYNPSLESRVTISIDTSKNQLSLDVTSATAADTAVYYCARDYCTDSGCDSDALDVWGHGTMVTVSS VL: QSALTQPASVSGSPGQSITISCTGTTKDVGNYNLVSWYQQHPGKAPRLVIYEVSERPSGVSNRFSGSKSGNTASLTISGLQAEDEADYHCCSYAGSGTSVFGGGTKVTVL" value=1.39
binder="NI-307.78C3 (antibody, V domains shown) VH: QVQLQESGPGLVKPSGTLSLTCTVSGGSISGRIWWSWVRQPPGKGLEWIGEIYHSGSTNYSPSLRGRVTISVDTSKQHFSLKMTSVTAADTAMYYCVRGELALGFDSWGQGTLVTVSS VL: QSALTQPPSASGSPGQSVTISCTGTSSDVGGYNSVSWYQQHPRRAPKLMIYEVSKRPSGVPDRFSGSKSGNTASLTVSGLQADDEAHYYCSSYAGSNNLVFGGGTMLTVL" value=0.932

As a next step, examine the binder that follows.
IN: Given NI-307.25G10 (antibody, V domains shown) VH: EVQLVESGGGLVQPGGSLRLSCVASGIIFKDYDFHWVRQVKEKGLEWVSAIGTAGDPYYAASVKGRFTVSRENGKNSVYLRMNNVGAGDTALYYCTSGNYFDRGSFRPSAFDMWGQGTMVTVSS VL: EIVLTQSPGTLSLSPGERATLSCWASQSVSSNYLAWYQHKPGQAPRLLIFRASRRATDIPERFSAGGSGTDFTLTISRLEAEDSAVYYCQEYGSAPPASITFGQGTRLEIK , state its recorded EC50.
OUT: 0.509
